# Test system: S. aureus ATCC 29213 respiratory activity
# protocol_summary: MTT assay of bacterial respiration
# Assay type: cell-based, Staphylococcus aureus
# experimental_setup: at the concentration given
parameter_measured: S. aureus Respiration Inhibition (%)
I only need the number, in %, no unit after it.

INSERT INTO assay_data (molecule, parameter_measured, measured_result) VALUES
  ('C=CCOc1ccc2c(c1)Nc1c(c[n+](C)c3ccccc13)S2 [Compound 6e]', 'S. aureus Respiration Inhibition', 97.4),
  ('CCCOc1ccc2c(c1)Sc1c[n+](C)c3ccccc3c1N2 [Compound 6a]', 'S. aureus Respiration Inhibition', 97.7);

Now, please, on to the next molecule.
Asked: Tell me the measured S. aureus Respiration Inhibition of O=C(O)c1cn(C2CC2)c2cc(N3CCNCC3)c(F)cc2c1=O [CPX, ciprofloxacin, reference compound] , please.
Given back: 96.1
